Target: T1, human TL1A extracellular domain with N-terminal HIS and FLAG tag (human, UniProt O95150 72-251)
T1 construct: whole entry named. ~70 kDa fraction purified by gel filtration
T1 sequence: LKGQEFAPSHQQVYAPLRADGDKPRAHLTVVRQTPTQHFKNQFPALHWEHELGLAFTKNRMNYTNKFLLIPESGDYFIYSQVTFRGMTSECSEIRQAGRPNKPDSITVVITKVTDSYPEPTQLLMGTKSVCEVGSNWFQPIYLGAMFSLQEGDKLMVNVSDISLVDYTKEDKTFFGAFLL
Test: SPR run 3; supernatant on Protein A; TL1A 10 ug/mL; timepoint 59
recorded_metric: TL1A Binding Level (Early) (RU)
Numbers only; they are read as RU.

Worked examples, 2 binders total:
1) 320-294 (antibody, human IgG1, name in Kabat numbering, V domains shown, human IgG1, lambda) VH: QVQLVQSGAEVKKPGASVKVSCKASGYTFTSYDINWVRQAPGQGLEWMGWLNPNSGNTGYAQKFQGRVTMTADRSTSTAYMELSSLRSEDTAVYYCAREVPETAAFEYWGQGTLVTVSS VL: QSVLTQPPSVSGAPGQRVTISCTSSSSDIGAGLGSHWYQQLPGTAPKLLIEGYYNRPSGVPDRFSGSKSGTSASLTITGLLPEDEGDYYCQSYDGTLSALFGGGTKLTVLG    79
2) 320-299 (antibody, human IgG1, name in Kabat numbering, V domains shown, human IgG1, lambda) VH: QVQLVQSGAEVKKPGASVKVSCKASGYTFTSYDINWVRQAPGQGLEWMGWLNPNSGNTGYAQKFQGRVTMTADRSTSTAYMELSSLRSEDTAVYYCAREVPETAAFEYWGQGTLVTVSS VL: QSVLTQPPSVSGAPGQRVTISCTSSSSDIGAGLGLHWYQQLPGTAPKLLIEGYYNRPSGVPDRFSGSKSGTSASLTITGLLPEDEGDYYCQSYDGTLSALFGGGTKLTVLG    51

Switching to the query record.
Returns the measured TL1A Binding Level (Early) for the input binder. Input: 320-257 (antibody, human IgG1, name in Kabat numbering, V domains shown, human IgG1, lambda) VH: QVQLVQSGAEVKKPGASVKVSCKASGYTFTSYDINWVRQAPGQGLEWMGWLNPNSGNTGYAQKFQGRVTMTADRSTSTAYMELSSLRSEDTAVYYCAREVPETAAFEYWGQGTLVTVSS VL: QSVLTQPPSVSGAPGQRVTISCTSSSSDIWAGLGVHWYQQLPGTAPKLLIEGYYNRPSGVPDRFSGSKSGTSASLTITGLLPEDEGDYYCQSYDGTLSALFGGGTKLTVLG
83
